The values you see were collected from patent US20250223281A1.

# TARGET DESC: GPR40 (Homo sapiens, UniProt O14842)
# Construct: expressed in transfected cells; host or cells: HEK293 cells stably expressing GPR40 (Hygromycin selection)
# Sequence (O14842 whole entry): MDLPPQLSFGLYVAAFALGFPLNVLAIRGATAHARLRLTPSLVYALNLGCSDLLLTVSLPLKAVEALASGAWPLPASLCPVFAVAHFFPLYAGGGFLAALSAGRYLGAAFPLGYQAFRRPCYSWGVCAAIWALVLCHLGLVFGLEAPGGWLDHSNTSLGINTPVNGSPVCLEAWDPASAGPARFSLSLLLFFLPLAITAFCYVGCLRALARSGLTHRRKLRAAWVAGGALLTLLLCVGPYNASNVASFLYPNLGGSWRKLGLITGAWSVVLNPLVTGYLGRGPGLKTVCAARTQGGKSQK
# MEASUREMENT NOTES: IP1 accumulation assay in HEK293 cells stably expressing GPR40
# Format: cell-based
# STATED CONDITIONS: IP1 accumulation, HEK293 cells stably expressing GPR40, 2 hours at 37° C., % effect relative to AMG-1638; table of Biological Example 1
PROPERTY: EC50 (nM)

Examples with answers:
COc1ccc(C(=O)N(CC(C)(C)CCCCCCn2cc(CCCCCCCCC(=O)NCC[N+](C)(CCC(=O)NCCN)CCC(=O)NCCN)nn2)c2cccc(C)n2)c(N2CCC(COc3cc([C@@H](CC(=O)O)C4CC4)ccn3)CC2)c1    3.18
COc1ccc(C(=O)N(CC(C)(C)CCn2cc(CCCCCCCCCCC(=O)NCC[N+](C)(CCC(=O)NCCN)CCC(=O)NCCN)nn2)c2cccc(C)n2)c(N2CCC(COc3cc([C@@H](CC(=O)O)C4CC4)ccn3)CC2)c1    6.27

[a] COc1ccc(F)c(-c2ccc(COc3cccc([C@@H](CC(=O)O)C4CC4)c3)cc2OC(C)(C)COCc2cn(CCCCCCCCCCCCCC(=O)NCC[N+](C)(CCC(=O)NCCN)CCC(=O)NCCN)nn2)c1
[b] COc1ccc(F)c(-c2ccc(COc3cccc([C@@H](CC(=O)O)C4CC4)c3)cc2OC(C)(C)Cn2cc(CCCCCCCCCCCCCCCCCC(=O)NCC[N+](C)(CCC(=O)NCCN)CCC(=O)NCCN)nn2)c1
# input Lab note: record which item had the higher EC50, a or b . Your answer should be the label attached to the chosen record.
# output a
